Each record here notes measured Activity.
System: Mus musculus
Assay: Anorexigenic activity in Mus musculus albino (mouse) assessed as anorexia at 75 umol/kg, ip relative to fluoxetine
Format: functional

{"columns": ["COMPOUND", "STUDY SYSTEM", "Activity, %"],
 "data": [
  ["N#Cc1ccc(OCC(O)CN2CCC(Oc3ccc(C(F)(F)F)cc3)CC2)cc1 (stereo unspecified)", "Mus musculus", 70.58],
  ["CCC(=O)c1ccc(OCC(O)CN2CCC(Oc3ccc(C(F)(F)F)cc3)CC2)cc1 (stereo unspecified)", "Mus musculus", 67.64],
  ["OC(COc1cccc(C(F)(F)F)c1)CN1CCC(Oc2ccc(C(F)(F)F)cc2)CC1 (stereo unspecified)", "Mus musculus", 38.23],
  ["OC(COc1ccc(C(F)(F)F)cc1)CN1CCC(Oc2ccc(C(F)(F)F)cc2)CC1 (stereo unspecified)", "Mus musculus", 77.94],
  ["FC(F)(F)c1ccc(OC2CCNCC2)cc1", "Mus musculus", 81.86],
  ["COc1ccc(OCC(O)CN2CCC(Oc3ccc(C(F)(F)F)cc3)CC2)cc1 (stereo unspecified)", "Mus musculus", 47.05],
  ["CC(=O)Nc1ccc(OCC(O)CN2CCC(Oc3ccc(C(F)(F)F)cc3)CC2)cc1 (stereo unspecified)", "Mus musculus", 61.67],
  ["COc1cccc(OCC(O)CN2CCC(Oc3ccc(C(F)(F)F)cc3)CC2)c1 (stereo unspecified)", "Mus musculus", 63.23],
  ["COC(=O)c1ccccc1OCC(O)CN1CCC(Oc2ccc(C(F)(F)F)cc2)CC1 (stereo unspecified)", "Mus musculus", 43.13],
  ["CC(=O)c1ccc(OCC(O)CN2CCC(Oc3ccc(C(F)(F)F)cc3)CC2)cc1 (stereo unspecified)", "Mus musculus", 96.07],
  ["CN1CCC(O)(c2ccccc2)CC1", "Mus musculus", 56.86],
  ["CN1CCC(Oc2ccc(C(F)(F)F)cc2)CC1", "Mus musculus", 28.92],
  ["COC(=O)c1ccc(OCC(O)CN2CCC(Oc3ccc(C(F)(F)F)cc3)CC2)cc1 (stereo unspecified)", "Mus musculus", 32.84],
  ["OC(COc1ccccc1)CN1CCC(Oc2ccc(C(F)(F)F)cc2)CC1 (stereo unspecified)", "Mus musculus", 82.84],
  ["OC(COc1ccc(Cl)cc1)CN1CCC(Oc2ccc(C(F)(F)F)cc2)CC1 (stereo unspecified)", "Mus musculus", 75.49],
  ["OC(COc1ccc(Br)cc1)CN1CCC(Oc2ccc(C(F)(F)F)cc2)CC1 (stereo unspecified)", "Mus musculus", 95.09]
]}
